# procedure.summary: Quantitative High-Throughput drug screen in 47 multiple myeloma cell lines against the NCATS MIPE library collection: UTMC2_PLB cell viability assay (AID 1919868); note: nearly all actives have a fitted effect of over 55% in size
# experimental.setup: CellTiter-Glo ATP luminescence, 48 h
Records with an inconclusive call do not appear. Calls of active or inactive are those of the source. Calls come from the whole dose curve; as a rule, active = well fitted cell-killing curve with a large enough effect; inconclusive = small, poorly fitted or top-dose-only effect, or effect the other way; inactive = no such curve, though single readings can be large or run the other way.
Hello, when you answer, please use one of the following outcomes: active, inactive

query: Record request — test call for C[C@@H](O[C@H]1OCCN(Cc2n[nH]c(=O)[nH]2)[C@@H]1c1ccc(F)cc1)c1cc(C(F)(F)F)cc(C(F)(F)F)c1
result: active

query: Which outcome did this test record for the compound Cc1nn(Cc2ccccc2Cl)c(C)c1CN(C)CC(O)COc1ccc(Cl)cc1 (configuration not stated) ?
result: active

query: Would you mind telling me which call this test gave COc1ccc(-c2cc3nccn3c(Nc3ncccc3C(N)=O)n2)cc1OC ?
result: active

query: I would be grateful if you could indicate the recorded call for CC(C)CN(C[C@@H](O)[C@H](Cc1ccccc1)NC(=O)O[C@H]1CO[C@H]2OCC[C@H]21)S(=O)(=O)c1ccc(N)cc1 .
result: active

query: Lab log entry: C[C@H]1COC2=C1C(=O)C(=O)c1c2ccc2c1CCCC2(C)C — outcome as called in the assay?
result: active

query: Test call for this compound, please: NS(=O)(=O)c1ccc(Nc2nc(OCC3CCCCC3)c3[nH]cnc3n2)cc1
result: active

query: GET /call?item= CC[C@]1(O)C[C@H]2CN(CCC3=c4ccccc4=N[C]3[C@@](C(=O)OC)(c3cc4c(cc3OC)N(C)[C@H]3[C@@](O)(C(N)=O)[C@H](O)[C@]5(CC)C=CCN6CC[C@]43[C@@H]65)C2)C1 returns the recorded outcome of this test.
result: active

query: Dear colleague, could you share the recorded outcome for CCc1cccc(CC)c1NC(=O)N1Cc2[nH]nc(NC(=O)c3ccc(N4CCN(C)CC4)cc3)c2C1 when you have a moment?
result: active

query: Record lookup: outcome of this test for CCNC(=O)c1noc(-c2cc(C(C)C)c(O)cc2O)c1-c1ccc(CN2CCOCC2)cc1 ?
result: active

query: Dear colleague, could you share the recorded outcome for O=S(=O)(NCCNCC=Cc1ccc(Br)cc1)c1cccc2cnccc12 when you have a moment?
result: active

query: Test call, this compound: CO[C@@H]1C(N(C)C(=O)c2ccccc2)C[C@H]2O[C@]1(C)n1c3ccccc3c3c4c(c5c6ccccc6n2c5c31)C(=O)NC4=O (some centres not stated)
result: active

query: How was COc1cccc(OC)c1-c1cc(C(=O)NC2(C(=O)O)C3CC4CC(C3)CC2C4)nn1-c1ccnc2cc(Cl)ccc12 (configuration not stated) classified in this test?
result: inactive

query: Which outcome was entered for the compound Cc1cccc(-c2[nH]c(C(C)(C)C)nc2-c2ccc3c(c2)OCO3)n1 in this test?
result: active

query: Test call, this compound: CC1(C)[C@H]2CC[C@]3(C)[C@@H](C(=O)C=C4[C@@H]5C[C@@](C)(C(=O)O)CC[C@]5(C)CC[C@]43C)[C@@]2(C)CC[C@@H]1O
result: inactive

query: Write down the call the test reported for this compound. Item: O=C(Nc1cccc2c(=O)cc(-c3nn[nH]n3)oc12)c1ccc(OCCCCc2ccccc2)cc1
result: active

query: Please let me know the test result on file for OC1CCC(Nc2ncc3nc(Nc4c(F)cc(F)cc4F)n([C@@H]4CCOC4)c3n2)CC1 (some centres not stated) .
result: inactive

query: Query: recorded result category for N#CC(c1ccnc(NCCc2cccnc2)n1)c1nc2ccccc2s1 (configuration not stated) in this test
result: active

----------
# procedure.summary: qHTS of pediatric cancer cell lines to identify multiple opportunities for drug repurposing: Primary screen for SK-N-MC cells (AID 1347093)
# experimental.setup: SK-N-MC viability, CellTiter-Glo luminescence, 48 h; series mostly up to 46 µM
Inconclusive results are not listed. Calls of active or inactive are those of the source. Calls follow the shape of the dose curve; as a rule, active = well fitted cell-killing curve with a large enough effect; inconclusive = small, poorly fitted or top-dose-only effect; inactive = no such curve, though single readings can be large or run the other way.
Answer with one of the outcomes active, inactive

query: Fill in: this test's call for COC(=O)N1CCN(Cc2cccc(NC(=O)Nc3ccc(C)nc3)c2F)CC1 is ___
result: inactive

query: // outcome(item) with item = CN(C)c1ccccc1CN1CCCN(Cc2ccccc2N(C)C)C1c1ccncc1
result: active

query: Per the records of this test, what outcome belongs to Cc1cc(C(C)Nc2ccccc2)c2nc(N3CCOCC3)cc(=O)n2c1 (stereo not given) ?
result: active

query: Please let me know the test result on file for O=c1[nH]c(=O)n([C@H]2C[C@@H](O)[C@@H](CO)O2)cc1I .
result: inactive

query: Could you check what this test reported for CC(C)(C)c1nc(-c2cccc(NS(=O)(=O)c3c(F)cccc3F)c2F)c(-c2ccnc(N)n2)s1 ?
result: active

----------
# System: SKOV3
# procedure.summary: Primary qHTS to identify gynecologic anti-cancer compounds using libraries of approved drugs and bioactive compounds (AID 1345084); note: nearly all actives have a fitted effect of over 55% in size; note: potency is the fitted concentration of half-maximal effect
# experimental.setup: Gynecologic cancer cell panel viability, ATPlite luminescence, 48 h; series mostly up to 57.5 µM
Records with an inconclusive call do not appear. The source made the active and inactive calls. The call rests on the fitted dose curve; in most records, active means well fitted cell-killing curve with a large enough effect; inconclusive means small, poorly fitted or top-dose-only effect, or effect the other way; inactive means flat fitted curve, though single readings scatter.
measured.property: Potency

Consider the following illustrative entries.
{"molecule": "CCN1C[C@H](C)n2c(c(O)c3c(=O)n(Cc4ccc(F)c(Cl)c4)nc(C(=O)NC)c32)C1=O", "measured.property": "Potency", "recorded.measurement": "inactive"}
{"molecule": "N#CC1(c2cccc(C(=O)Nc3cc(Oc4ccc5nc(NC(=O)C6CC6)sc5n4)ccc3F)c2Cl)CC1", "measured.property": "Potency", "recorded.measurement": "20 µM (active)"}
{"molecule": "Cc1ccccc1-n1c(Cn2nc(-c3cccc(O)c3)c3c(N)ncnc32)nc2cccc(C)c2c1=O", "measured.property": "Potency", "recorded.measurement": "inactive"}
{"molecule": "CC1=C(C(=O)Nc2cc3cn[nH]c3cc2F)C(c2ccc(C(F)(F)F)cc2)CC(=O)N1 (centres undefined)", "measured.property": "Potency", "recorded.measurement": "inactive"}
{"molecule": "CCc1cccc(CC)c1NC(=O)N1Cc2[nH]nc(NC(=O)c3ccc(N4CCN(C)CC4)cc3)c2C1", "measured.property": "Potency", "recorded.measurement": "inactive"}
{"molecule": "Cc1cc(-c2ncc(CC(=O)Nc3ccc(-c4cnccn4)cn3)cc2C)ccn1", "measured.property": "Potency", "recorded.measurement": "39.8 µM (active)"}

query: Using the record for CN1C(=O)C(Cc2c[nH]c3ccccc23)NC1=S (centres undefined) , report its Potency.
result: inactive

query: // lookup Potency for NS(=O)(=O)c1cc(Cl)c(Cl)c(S(N)(=O)=O)c1
result: inactive

query: Sample CCCCC[C@H](O)C=C[C@H]1[C@H](O)CC(=O)[C@H]1CC=CCCCC(=O)O — what was its Potency?
result: inactive

----------
# Tested on: 3D7
# procedure.summary: qHTS profiling for inhibitors of Plasmodium falciparum proliferation (AID 504749); note: nearly all actives have a fitted effect of over 60% in size
# experimental.setup: P. falciparum in erythrocytes, SYBR Green DNA, 72 h; series mostly up to 28.7 µM
Inconclusive results are not listed. Calls of active or inactive are those of the source. The call rests on the fitted dose curve; in most records, active means well fitted inhibition curve with a large enough effect; inconclusive means small, poorly fitted or top-dose-only effect; inactive means flat fitted curve, though single readings scatter.
measured.property: outcome

{"compound": "COc1ccnc(CS(=O)c2nc3ccc(OC(F)F)cc3[nH]2)c1OC (stereo not drawn)", "recorded.measurement": "inactive"}
{"compound": "N#Cc1c(N(CC(=O)O)CC(=O)O)sc(C(=O)O)c1CC(=O)O", "recorded.measurement": "inactive"}
{"compound": "CS(=O)(=O)c1ccc(C2=C(c3ccccc3)C(=O)OC2)cc1", "recorded.measurement": "inactive"}
